Ref: ChEMBL document CHEMBL4229505

target: Transient receptor potential cation channel subfamily V member 1 (Homo sapiens, UniProt Q8NER1); experiment: Antagonist activity at human TRPV1 expressed in CHOK1 cells assessed as reduction in capsaicin-induced intracellular calcium level preincubated for 6 mins followed by capsaicin addition by Fluo-4 dye based FLIPR assay; type: cell-based; conditions: read-out: Ki
Sequence (Q8NER1 whole entry): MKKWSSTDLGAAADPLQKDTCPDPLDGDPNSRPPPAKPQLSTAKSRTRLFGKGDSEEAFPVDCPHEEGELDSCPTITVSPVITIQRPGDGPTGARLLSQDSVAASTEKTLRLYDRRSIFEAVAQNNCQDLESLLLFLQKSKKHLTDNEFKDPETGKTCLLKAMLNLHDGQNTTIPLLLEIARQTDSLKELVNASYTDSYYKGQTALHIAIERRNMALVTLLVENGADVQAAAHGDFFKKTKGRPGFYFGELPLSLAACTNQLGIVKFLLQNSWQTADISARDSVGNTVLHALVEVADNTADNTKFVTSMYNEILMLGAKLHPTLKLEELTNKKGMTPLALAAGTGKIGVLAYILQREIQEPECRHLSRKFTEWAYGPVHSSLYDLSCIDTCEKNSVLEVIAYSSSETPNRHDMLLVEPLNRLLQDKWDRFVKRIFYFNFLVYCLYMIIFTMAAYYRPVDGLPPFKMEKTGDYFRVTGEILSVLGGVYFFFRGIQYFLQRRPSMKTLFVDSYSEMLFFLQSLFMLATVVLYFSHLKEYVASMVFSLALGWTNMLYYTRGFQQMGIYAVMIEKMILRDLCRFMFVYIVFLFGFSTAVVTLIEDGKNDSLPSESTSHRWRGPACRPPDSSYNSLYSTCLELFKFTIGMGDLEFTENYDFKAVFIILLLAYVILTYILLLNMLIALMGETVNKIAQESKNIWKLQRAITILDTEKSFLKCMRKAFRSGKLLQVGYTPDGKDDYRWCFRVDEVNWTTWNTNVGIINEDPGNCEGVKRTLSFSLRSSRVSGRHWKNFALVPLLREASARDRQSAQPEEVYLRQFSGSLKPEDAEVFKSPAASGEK
quantity-measured: Ki (nM)

// worked examples, Ki included
Please look up its Ki: CC1CCN(c2nc(C(F)(F)F)ccc2CNC(=O)C(C)c2ccc(NC(=O)C3CC3)c(F)c2)CC1 (centres undefined)
20

Please look up its Ki: CC1CCN(c2nc(C(F)(F)F)ccc2CNC(=O)C(C)c2cc(O)c(N)c(F)c2)CC1 (centres undefined)
5.3

Please look up its Ki: CC1CCN(c2nc(C(F)(F)F)ccc2CNC(=O)C(C)c2ccc(NC(=O)c3ccccc3)c(F)c2)CC1 (centres undefined)
7.4

[A] CC1CCN(c2nc(C(F)(F)F)ccc2CNC(=O)C(C)c2ccc(NC(=O)C(C)C)c(F)c2)CC1 (centres undefined)
[B] CC1CCN(c2nc(C(F)(F)F)ccc2CNC(=O)C(C)c2ccc(NC(=O)C(C)(C)C)c(F)c2)CC1 (centres undefined)
Rank A against B by their Ki values and give the higher one. // output: label of the selected item
B

[a] CC1CCN(c2nc(C(F)(F)F)ccc2CNC(=O)Cc2cc(Cl)c(N)c(Cl)c2)CC1
[b] CC1CCN(c2nc(C(F)(F)F)ccc2CNC(=O)C(C)c2ccc(Nc3ccc(Cl)cc3)cc2)CC1 (centres undefined)
Given a and given b , which shows the smaller recorded Ki? // output: label of the selected item
a

[P] CC1CCN(c2nc(C(F)(F)F)ccc2CNC(=O)C(C)c2cc(Cl)c(N)c(Cl)c2)CC1 (centres undefined)
[Q] COc1cc(C(C)C(=O)NCc2ccc(C(F)(F)F)nc2N2CCC(C)CC2)cc(OC)c1N (centres undefined)
Given P and given Q , which shows the smaller recorded Ki? // output: label of the selected item
P
